target: Serine/threonine-protein kinase MARK1 (Homo sapiens); conditions: at 10 µM
Rule: measured residual activity below 50% gets yes (1); anything equal to or greater than 50% gets no (0).

Molecule | System | Label value
CCCCc1c(-c2ccc(O)cc2)[nH]c2nccnc12 | Serine/threonine-protein kinase MARK1 (Homo sapiens) | yes (1)
CC(C)[C@H](CO)Nc1nc(Nc2cc(N)cc(Cl)c2)c2ncn(C(C)C)c2n1 | Serine/threonine-protein kinase MARK1 (Homo sapiens) | yes (1)
CC(C)N(CCC(=O)c1ccc2ccccc2c1)Cc1ccccc1 | Serine/threonine-protein kinase MARK1 (Homo sapiens) | no (0)
COc1ccc2c(c1)c(C1=C(c3c[nH]c4ccccc34)C(=O)NC1=O)cn2CCCN(C)C | Serine/threonine-protein kinase MARK1 (Homo sapiens) | no (0)
CCN(CC)CCNC(=O)c1c(C)[nH]c(/C=C2\C(=O)Nc3ccc(Cl)cc32)c1C | Serine/threonine-protein kinase MARK1 (Homo sapiens) | yes (1)
Nc1ncnc2[nH]nc(Nc3ccc(F)cc3)c12 | Serine/threonine-protein kinase MARK1 (Homo sapiens) | no (0)
COc1ccc(-c2cnc3c(-c4ccsc4)cnn3c2)cc1 | Serine/threonine-protein kinase MARK1 (Homo sapiens) | no (0)
COc1ccc(COc2ccc(Cc3cnc(N)nc3N)cc2OC)cc1 | Serine/threonine-protein kinase MARK1 (Homo sapiens) | no (0)
NC(=O)c1ccc(-c2nc(-c3ccc4c(c3)OCCO4)c(-c3ccccn3)[nH]2)cc1 | Serine/threonine-protein kinase MARK1 (Homo sapiens) | no (0)
